Test system: IL-6 in HFLS-RA cells
Assay: Effect on HFLS-RA cytokine secretion, IL-6 (ELISA)
Format: cell-based, human
Parameters: unit not given here
Conditions: supernatant content, TNF-α 10 ng/mL, test sample 100 µg/mL, 48 h culture, x ± s
quantity kind: IL-6
Could you keep your reply to the number by itself?

Input: Given CCN(CC)CCOC(=O)[C@@H](C)c1ccc(C[C@H]2CCC[C@@H]2O)cc1 , respond with its IL-6.
Output: 46.26

Input: Given CCN(CC)CC(=O)O[C@H]1CCC[C@@H]1Cc1ccc([C@H](C)C(=O)O)cc1 , respond with its IL-6.
Output: 46.58

Input: Given CCN(CC)CCOC(=O)O[C@H]1CCC[C@@H]1Cc1ccc([C@H](C)C(=O)O)cc1 , respond with its IL-6.
Output: 47.59
